system under test: human SST2 receptor (SSTR2) (Homo sapiens (Human), UniProt P30874)
Sequence (P30874 whole entry): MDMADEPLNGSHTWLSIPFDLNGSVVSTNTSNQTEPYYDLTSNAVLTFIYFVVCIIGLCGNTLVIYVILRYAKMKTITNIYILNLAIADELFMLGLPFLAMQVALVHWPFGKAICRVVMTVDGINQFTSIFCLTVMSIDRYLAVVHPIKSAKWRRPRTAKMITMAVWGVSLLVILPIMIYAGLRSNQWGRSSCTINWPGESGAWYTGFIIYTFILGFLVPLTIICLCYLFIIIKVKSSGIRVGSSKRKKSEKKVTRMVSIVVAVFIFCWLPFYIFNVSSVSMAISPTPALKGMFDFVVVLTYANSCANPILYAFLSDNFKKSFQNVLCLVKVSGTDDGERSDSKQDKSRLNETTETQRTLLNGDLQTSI
procedure text: cAMP assay: inhibition of cAMP via human SST2 receptor in CHO-K1 cells
particulars: CHO-K1 cells stably expressing human SSTR2, NKH477 stimulated
readout kind: EC50

*Q* Given `Nc1ncc(-c2cc(F)cc(Cl)c2)c(N2CC[C@@H]3NCCO[C@H]3C2)c1-c1nc2c(F)cc(F)cc2[nH]1` , state its recorded EC50.
*A* < 100 pM

*Q* Given `COc1cc(F)cc2[nH]c(-c3c(N)ncc(-c4cccc(F)c4)c3N3CC[C@@H]4NCCO[C@H]4C3)nc12` , state its recorded EC50.
*A* 100 to 1000 pM

*Q* Given `CNc1ncc(-c2cccc(F)c2)c(N2CC[C@@H]3NCCO[C@H]3C2)c1-c1nc2c(OC)cc(F)cc2[nH]1` , state its recorded EC50.
*A* 100 to 1000 pM

*Q* Given `COc1cc(C#N)cc2nc(-c3c(N(C)C)ncc(-c4cc(C)cc(F)c4)c3N3CCC(N)CC3)[nH]c12` , state its recorded EC50.
*A* ≥ 1000 pM

*Q* Given `N#Cc1cc(F)c2nc(-c3c(N)ncc(-c4cc(F)cc(F)c4)c3N3CC[C@@H]4OCCN[C@H]4C3)[nH]c2c1` , state its recorded EC50.
*A* 100 to 1000 pM

*Q* Given `COc1cc(F)cc2[nH]c(-c3c(N)ncc(-c4cc(C)cc(F)c4)c3N3CC[C@@H]4NCCO[C@H]4C3)nc12` , state its recorded EC50.
*A* < 100 pM

*Q* Given `CNc1ncc(-c2cc(F)cc(Cl)c2)c(N2CC[C@@H]3NCCO[C@H]3C2)c1-c1nc2c(OC)cc(F)cc2[nH]1` , state its recorded EC50.
*A* 100 to 1000 pM

*Q* Given `Cc1cc(F)cc(-c2cnc(N)c(-c3nc4c(F)cc(F)cc4[nH]3)c2N2CC[C@@H]3NCCO[C@H]3C2)c1` , state its recorded EC50.
*A* < 100 pM

*Q* Given `CNc1ncc(-c2cc(F)cc(F)c2)c(N2CC[C@@H]3NCCO[C@H]3C2)c1-c1nc2c(F)cc(F)cc2[nH]1` , state its recorded EC50.
*A* 100 to 1000 pM

*Q* Given `COc1cc(C#N)cc2[nH]c(-c3c(N)ncc(-c4cc(F)cc(Cl)c4)c3N3CCC(N)CC3)nc12` , state its recorded EC50.
*A* 100 to 1000 pM

*Q* Given `CNc1ncc(-c2cccc(F)c2)c(N2CC[C@@H]3NCCO[C@H]3C2)c1-c1nc2c(OC)cc(C#N)cc2[nH]1` , state its recorded EC50.
*A* ≥ 1000 pM

*Q* Given `COc1cc(F)cc2nc(-c3c(C(N)=O)ncc(-c4cc(C)cc(F)c4)c3N3CCC(N)CC3)[nH]c12` , state its recorded EC50.
*A* 100 to 1000 pM

*Q* Given CNc1ncc(-c2cc(C)cc(F)c2)c(N2CCC3OCCNC3C2)c1-c1nc2c(OC)cc(F)cc2[nH]1 (centres unmarked) , state its recorded EC50.
*A* < 100 pM

*Q* Given Nc1ncc(-c2cc(F)cc(F)c2)c(N2CCC3OCCNC3C2)c1-c1nc2c(F)cc(F)cc2[nH]1 (centres unmarked) , state its recorded EC50.
*A* 100 to 1000 pM

*Q* Given `COc1cc(C#N)cc2[nH]c(-c3c(N)ncc(-c4cccc(F)c4)c3N3CC[C@@H]4NCCO[C@H]4C3)nc12` , state its recorded EC50.
*A* 100 to 1000 pM

*Q* Given `COc1cc(F)cc2nc(-c3c(C#N)ncc(-c4cc(C)cc(F)c4)c3N3CCC(N)CC3)[nH]c12` , state its recorded EC50.
*A* 100 to 1000 pM

*Q* Given COc1cc(F)cc(-c2cnc(N)c(-c3nc4c(F)cc(F)cc4[nH]3)c2N2CCC3OCCNC3C2)c1 (centres unmarked) , state its recorded EC50.
*A* < 100 pM

*Q* Given `COc1cc(F)cc2[nH]c(-c3c(N)ncc(-c4cc(F)cc(Cl)c4)c3N3CC[C@@H]4OCCN[C@H]4C3)nc12` , state its recorded EC50.
*A* < 100 pM

*Q* Given `COc1cc(C#N)cc2[nH]c(-c3c(N)ncc(-c4cc(C)cc(F)c4)c3N3CC[C@@H]4NCCO[C@H]4C3)nc12` , state its recorded EC50.
*A* < 100 pM

*Q* Given `Nc1ncc(-c2cccc(F)c2)c(N2CC[C@@H]3NCCO[C@H]3C2)c1-c1nc2c(F)cc(F)cc2[nH]1` , state its recorded EC50.
*A* 100 to 1000 pM

*Q* Given `COc1cc(C#N)cc2[nH]c(-c3c(N)ncc(-c4cc(F)cc(F)c4)c3N3CC[C@@H]4NCCO[C@H]4C3)nc12` , state its recorded EC50.
*A* 100 to 1000 pM

*Q* Given `COC(=O)c1ncc(-c2cc(C)cc(F)c2)c(N2CCC(N)CC2)c1-c1nc2cc(F)cc(OC)c2[nH]1` , state its recorded EC50.
*A* 100 to 1000 pM

*Q* Given `COc1cc(C#N)cc2[nH]c(-c3c(N)ncc(-c4cc(C)cc(F)c4)c3N3CCC(N)CC3)nc12` , state its recorded EC50.
*A* < 100 pM
